- Test system: MIA PaCa-2 cells
- ASSAY: MIA PaCa-2 CTG Assay (CellTiter-Glo cell viability)
- Assay type: cell-based, human
- PROTOCOL CONDITIONS: Homo sapiens; Mia PaCa-2, 72 h; second value of the cell; read-out: G12D/C/V Cell Proliferation CTG (72 h) Mia PaCa-2

{"MOLECULE": "O=C1OCCCc2c(Cl)cc3[nH]ncc3c2-c2ncc3c(nc(OC[C@@]45CCCN4C[C@H](F)C5)nc3c2F)N2CCCC[C@](CF)(C2)O1", "IC50 (nM)": 17}
{"MOLECULE": "O=C1OCCCc2c(Cl)cc3[nH]ncc3c2-c2ncc3c(nc(OC[C@H]4CC[C@@H]5COCCN54)nc3c2F)N2CCOC[C@H](C2)O1", "IC50 (nM)": 33}
{"MOLECULE": "O=C1OCCc2c(Cl)cc3[nH]ncc3c2-c2ncc3c(nc(OC[C@@]45CCCN4C[C@H](F)C5)nc3c2F)N2CCO[C@@H](CO1)C2", "IC50 (nM)": 49}
{"MOLECULE": "O=C1OCCCc2c(Cl)cc3[nH]ncc3c2-c2ncc3c(nc(OC[C@@]45CCCN4C[C@H](F)C5)nc3c2F)N2CC[C@H]3CCN1[C@H]3C2", "IC50 (nM)": 100}
{"MOLECULE": "C[C@@]12COCCN(C1)c1nc(OC[C@@]34CCCN3C[C@H](F)C4)nc3c(F)c(ncc13)-c1cccc(Cl)c1CCCOC(=O)O2", "IC50 (nM)": 320}
{"MOLECULE": "Fc1c2ncc3c(nc(OC[C@@]45CCCN4C[C@H](F)C5)nc13)N1CCCCC(COCCCCc3c(Cl)cc4[nH]ncc4c3-2)C1 (stereo partly drawn)", "IC50 (nM)": 20}
{"MOLECULE": "CN1C[C@H](F)C[C@H]1COc1nc2c3cnc(c(F)c3n1)-c1cc(O)cc3ccc(F)c(c13)CCCC(=O)N[C@]1(C)CCCN2C1 [Example 5, bis(2,2,2-trifluoroacetate)]", "IC50 (nM)": 62}
{"MOLECULE": "Cc1cc2[nH]ncc2c2c1CCCCC(=O)O[C@@H]1CCCN(C1)c1nc(OC[C@@]34CCCN3C[C@H](F)C4)nc3c(F)c-2ncc13", "IC50 (nM)": 170}
{"MOLECULE": "Fc1c2ncc3c(nc(OC[C@@]45CCCN4C[C@H](F)C5)nc13)N1CCC[C@@H](CSCCCCc3c(Cl)cc4[nH]ncc4c3-2)C1", "IC50 (nM)": 480}
{"MOLECULE": "Cc1cc2[nH]ncc2c2c1CCCOC(=O)O[C@@H]1COCCN(C1)c1nc(OC[C@@]34CCCN3C[C@H](F)C4)nc3c(F)c-2ccc13", "IC50 (nM)": 67}
{"MOLECULE": "O=C1OCCc2c(Cl)cc3[nH]ncc3c2-c2ncc3c(nc(OC[C@@]45CCCN4C[C@H](F)C5)nc3c2F)N2CCOC[C@]3(C2)C[C@H](C3)O1", "IC50 (nM)": 13}
{"MOLECULE": "CN1[C@H](COc2nc3c4cnc(c(F)c4n2)-c2c(c(Cl)cc4[nH]ncc24)CCCOC(=O)O[C@@H]2COCCN3C2)C[C@H]2C[C@H]21", "IC50 (nM)": 530}
